# Lookup of reported self-cleavage keyed by entry
B1: LINE1-mini (parent)
chain: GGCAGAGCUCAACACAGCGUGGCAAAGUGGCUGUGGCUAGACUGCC

# Variants of: B1
# PROCEDURE_SUMMARY: self-cleavage, relative activity (ratio to wild type); higher = more cleavage; in vitro, sequencing; the parent is a self-cleaving ribozyme
// no unit, no text: just the number

Below: 10 variants and their reported self-cleavage.
* GGCAGAGCUCAAUACAGCGUGGCAAAGUGGCUGUGGCUACACUGCC [C13U G40C] | 0.08
* CGCAGAGCUCAACACAGCGUGGCAAAGGGGCUGUGGCUAGACUGCC [G1C U28G] | 0.07
* GGCAGAACUCAACACAGCGUGGCAAAGUGUCUGUGGCUAGACUGCC [G7A G30U] | 0.24
* GGCAGAGCUCAACCCAGCGUGGCAAGGUGGCUGUGGCUAGACUGCC [A14C A26G] | 0.06
* GGCAGAACUCAACACAGCGUGGCAAAGUGGCAGUGGCUAGACUGCC [G7A U32A] | 0.13
* GGCAGAGCUCAACACAGCGUGGCAAAGUGGGUGUGGCUAGACUGUC [C31G C45U] | 0.08
* GGCAGAGCUCAACACAGCGUGGCAAAGUGGCUGUGGCUUGAUUGCC [A39U C42U] | 0.23
* GGCAGAGCUCAACACAUCGUGGCAAAGUGGCUGUGGCUAGACUGCG [G17U C46G] | 0.12
* GGCAGCGCUCAUCACAGCGUGGCAAAGUGGCUGUGGCUAGACUGCC [A6C A12U] | 0.16
* GGAAGAGCUCAACACAGUGUGGCAAAGUGGCUGUGGCUAGACUGCC [C3A C18U] | 0.49

**Query** Return self-cleavage (reported value) for this variant: GGCAGAGCUCAACACAGCGUCGCAAAGUGGCUGUGGCUAGGCUGCC [G21C A41G]
**Result** 0.32

**Query** Return self-cleavage (reported value) for this variant: GGCAGAGCUCAACACUGCGUGGCAAAGUGGCUGUGGCUAAACUGCC [A16U G40A]
**Result** 0.04
